Provide the reported binding signal of each item.
target: GST-SBP-SLBP (stem-loop binding protein) (Homo sapiens, UniProt Q14493 1-270); assay: targeted RNA Bind-n-Seq; RBNS binding buffer: 25 mM Tris pH 7.5, 150 mM KCl, 3 mM MgCl2, 0.1% Tween, 0.5 mg/mL BSA, 1 mM DTT; 27 nM protein, 750 pM RNA pool; temperature not stated; high values mean tight binding; settings: protein: recombinant; tags: N-terminal GST and SBP (pGEX6P1-SBP)
Give bare numbers, in log2 fold change.

Before answering, review these 4 worked examples.
• consensus (structured_RNA) RNA: GGUCACGUCUCAAUCAACUCCCAAAGGUCCUUUUAAGGACCACCCAUCAACAGCUCGCAGUCAAG = 3.61
• consensus (structured_RNA) RNA: GGUCACGUCUCAAUCAACUCCCAAAGGUUCUUCUUAGGACCACCCAUCAACAGCUCGCAGUCAAG = 2.26
• consensus (structured_RNA) RNA: GGUCACGUCUCAAUCAACUCCCAAAGGCCUUUUUAAGGGCCACCCAUCAACAGCUCGCAGUCAAG = 2.24
• consensus (structured_RNA) RNA: GGUCACGUCUCAAUCAACUCCCAAAGGCUUUUCUUAAAGCCACCCAUCAACAGCUCGCAGUCAAG = 3

Query :: Requested field: binding signal. Item: consensus (structured_RNA) RNA: GGUCACGUCUCAAUCAACUCCCAAAGGUUCUUUUUAGGACCACCCAUCAACAGCUCGCAGUCAAG
Result :: 2.58

Cited source: paper PMC5892938
